The following proteins are listed with their measured Specific activity (U/mg) values.
biological target: T1, FRET-GGGGG (FRET substrate having pentaglycine between Nma and Lys(Dnp))
T1 chain: GGGGG
parameter: Specific activity (U/mg)

protein: Aeromonas hydrophila proteinase (AhP) (protein) AGGQFQLPWRQGYSWKANGAHSHTGSGYPYSSIDVSYDWPGWGGATYTVTAANSGTVTVFSRCQVRVTATNGWATNYYHMSGISVRSGDYVAADTPIGTYASNRNEALCEGGSSTGPHLHFSLLYNGVFQSLQGQRLSSYAVNVGASNYDDNCNRFWLYNQRNGQRYCAWQPLYNNGID
units: U/mg
numeric.value: 53
//
protein: ALE-1 glycylglycine endopeptidase (ALE-1) (protein) STKVDAPKVEQEAPAKADAPKVEQEAPAKADAPKVEQEAPAKVDAPKVEQEAPAKVDAPKVEQEAPAKADAPKVEQKRTFVREAAQSNHSASWLNNYKKGYGYGPYPLGINGGNHYGVDFFMNVGTPVRAISDGKIVEAGWTNYGGGNEIGLVENDGVHRQWYMHLSKFNVKVGDRVKAGQIIGWSGSTGYSTAPHLHFQRMTNSFSNNTAQDPMPFLKSAGYGSNSTSSSNNNGYKTNKYGTLYKSESASFTANTDIITRLTGPFRSMPQSGVLRKGLTIKYDEVMKQDGHVWVGYNTNSGKRVYLPVRTWNESTGELGPLWGTIK
units: U/mg
numeric.value: 3
//
protein: Las A protein (LasA or LAS) (protein) APPSNLMQLPWRQGYSWQPNGAHSNTGSGYPYSSFDASYDWPRWGSATYSVVAAHAGTVRVLSRCQVRVTHPSGWATNYYHMDQIQVSNGQQVSADTKLGVYAGNINTALCEGGSSTGPHLHFSLLYNGAFVSLQGASFGPYRINVGTSNYDNDCRRYYFYNQSAGTTHCAFRPLYNPGLAL
units: U/mg
numeric.value: 19
